# CONDITION PARAMETERS: in ethanol, 303.15 K
OBSERVED PROPERTY: solubility (mole fraction)

Problem: I would be grateful if you could share the reported solubility (mole fraction) for NC(N)=S .
Result: 0.027

====

# CONDITION PARAMETERS: in ethanol, 313.15 K
OBSERVED PROPERTY: solubility (mole fraction)
Please respond with just the number, no unit label.

Problem: I would be grateful if you could share the reported solubility (mole fraction) for NC(N)=S .
Result: 0.0348

====

# CONDITION PARAMETERS: in ethanol, 288.15 K
OBSERVED PROPERTY: solubility (mole fraction)
Please respond with just the number, no unit label.

Problem: I would be grateful if you could share the reported solubility (mole fraction) for NC(N)=S .
Result: 0.0206

These entries and their values trace back to BigSolDB 2.1.
